# Experimental target: Thrombin and coagulation factor VII (Homo sapiens) (UniProt P00734+P08709)
# Experiment description: Selectivity ratio for tissue factor VIIa and thrombin (IIa)
# Assay type: protein assay
So I've got a bunch of compounds here, and I need their Ratio values.

Recorded result, Cc1cccc(C[C@H](NC(=O)[C@@H](Cc2ccccc2)NS(=O)(=O)Cc2ccccc2)C(=O)N[C@@H](CCCN=C(N)N)C(=O)c2nccs2)c1 , Ratio: 71

response.value for N=C(N)NCCC[C@H](NC(=O)[C@H](Cc1cccc(Cl)c1)NC(=O)[C@@H](Cc1ccccc1)NS(=O)(=O)Cc1ccccc1)C(=O)c1nccs1 (field: Ratio) = 63

Consider CC[C@@H](C)[C@H](NC(=O)[C@@H](Cc1ccccc1)NS(=O)(=O)Cc1ccccc1)C(=O)N[C@@H](CCCN=C(N)N)C(=O)c1nccs1 . Its measured Ratio is 64

Recorded result, N=C(N)NCCC[C@H](NC(=O)[C@H](CC(N)=O)NC(=O)[C@@H](Cc1ccccc1)NS(=O)(=O)Cc1ccccc1)C(=O)c1nccs1 , Ratio: 58

What the record says about N=C(N)NCCC[C@H](NC(=O)[C@H](Cc1cccnc1)NC(=O)[C@@H](Cc1ccccc1)NS(=O)(=O)Cc1ccccc1)C(=O)c1nccs1 : Ratio is 500

Measured Ratio of N=C(N)NCCC[C@H](NC(=O)[C@H](Cc1cccc(C(F)(F)F)c1)NC(=O)[C@@H](Cc1ccccc1)NS(=O)(=O)Cc1ccccc1)C(=O)c1nccs1 : 106

The recorded Ratio for entry Cc1ccccc1C[C@H](NC(=O)[C@@H](Cc1ccccc1)NS(=O)(=O)Cc1ccccc1)C(=O)N[C@@H](CCCN=C(N)N)C(=O)c1nccs1 equals 90

compound N#CC[C@H](NC(=O)[C@@H](Cc1ccccc1)NS(=O)(=O)Cc1ccccc1)C(=O)N[C@@H](CCCNC(=N)N)C(=O)c1nccs1 , Ratio observed: 69

Notebook: N=C(N)NCCC[C@H](NC(=O)[C@H](Cc1ccccc1)NC(=O)[C@@H](Cc1ccccc1)NS(=O)(=O)Cc1ccccc1)C(=O)c1nccs1 , Ratio read as 95

The compound listed as N=C(N)NCCC[C@H](NC(=O)[C@H](Cc1ccc(F)c(F)c1)NC(=O)[C@@H](Cc1ccccc1)NS(=O)(=O)Cc1ccccc1)C(=O)c1nccs1 shows Ratio equal to 70

The compound listed as N=C(N)NCCC[C@H](NC(=O)[C@H](Cc1ccccc1F)NC(=O)[C@@H](Cc1ccccc1)NS(=O)(=O)Cc1ccccc1)C(=O)c1nccs1 shows Ratio equal to > 333

# compound N=C(N)NCCC[C@H](NC(=O)[C@H](Cc1cccc(F)c1)NC(=O)[C@@H](Cc1ccccc1)NS(=O)(=O)Cc1ccccc1)C(=O)c1nccs1 ; its Ratio = 75

Record N#Cc1ccc(C[C@H](NC(=O)[C@@H](Cc2ccccc2)NS(=O)(=O)Cc2ccccc2)C(=O)N[C@@H](CCCNC(=N)N)C(=O)c2nccs2)cc1 , field Ratio: 147

###

IC50 tested on Prothrombin (Homo sapiens, UniProt P00734): recorded values
Provide the reading as a plain figure in µM.

Lab book: IC50 of CC[C@@H](C)[C@H](NC(=O)[C@@H](Cc1ccccc1)NS(=O)(=O)Cc1ccccc1)C(=O)N[C@@H](CCCN=C(N)N)C(=O)c1nccs1 noted as 19.3

// sample NC(N)=NCCC[C@H](NC(=O)[C@H](Cc1cccnc1)NC(=O)[C@@H](Cc1ccccc1)NS(=O)(=O)Cc1ccccc1)C(=O)c1nccs1 , its IC50 was 100

Reported IC50 ( N=C(N)NCCC[C@H](NC(=O)[C@H](Cc1cccc(Cl)c1)NC(=O)[C@@H](Cc1ccccc1)NS(=O)(=O)Cc1ccccc1)C(=O)c1nccs1 ) = 14.6

Reported IC50 of N=C(N)NCCC[C@H](NC(=O)[C@H](Cc1ccc(F)c(F)c1)NC(=O)[C@@H](Cc1ccccc1)NS(=O)(=O)Cc1ccccc1)C(=O)c1nccs1 : 11.2

Record N#CC[C@H](NC(=O)[C@@H](Cc1ccccc1)NS(=O)(=O)Cc1ccccc1)C(=O)N[C@@H](CCCNC(=N)N)C(=O)c1nccs1 , field IC50: 100

Entry Cc1cccc(C[C@H](NC(=O)[C@@H](Cc2ccccc2)NS(=O)(=O)Cc2ccccc2)C(=O)N[C@@H](CCCNC(=N)N)C(=O)c2nccs2)c1 , IC50 reported as 12

###

# Experimental target: UniProtKB P00742
# Sequence (P00742 41-179 limits assumed): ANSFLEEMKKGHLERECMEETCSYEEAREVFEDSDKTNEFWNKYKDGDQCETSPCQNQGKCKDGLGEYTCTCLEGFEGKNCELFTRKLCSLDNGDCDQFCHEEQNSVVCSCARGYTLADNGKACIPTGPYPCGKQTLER
# Sequence (P00742 235-488 limits assumed): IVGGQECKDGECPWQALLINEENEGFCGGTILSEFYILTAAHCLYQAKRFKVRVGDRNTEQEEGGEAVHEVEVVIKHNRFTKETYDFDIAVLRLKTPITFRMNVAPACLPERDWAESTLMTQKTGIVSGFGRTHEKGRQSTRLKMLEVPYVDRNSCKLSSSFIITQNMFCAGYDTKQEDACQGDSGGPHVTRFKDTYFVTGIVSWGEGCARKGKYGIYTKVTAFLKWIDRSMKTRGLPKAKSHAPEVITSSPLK
Mark each entry satisfied if its IC50 sits below 400 nM, and not satisfied for all others.

stdin: Check if IC50 falls below 400 nM for N=C(N)NCCC[C@H](NC(=O)[C@H](Cc1ccc(F)c(F)c1)NC(=O)[C@@H](Cc1ccccc1)NS(=O)(=O)Cc1ccccc1)C(=O)c1nccs1 .
stdout: satisfied

stdin: Lab note: IC50 threshold 400 nM. Does this molecule come in strictly under it? N#CC[C@H](NC(=O)[C@@H](Cc1ccccc1)NS(=O)(=O)Cc1ccccc1)C(=O)N[C@@H](CCCNC(=N)N)C(=O)c1nccs1
stdout: not satisfied

stdin: For N=C(N)NCCC[C@H](NC(=O)[C@H](Cc1cccc(C(F)(F)F)c1)NC(=O)[C@@H](Cc1ccccc1)NS(=O)(=O)Cc1ccccc1)C(=O)c1nccs1 , is the recorded IC50 below the cut-off of 400 nM?
stdout: not satisfied

stdin: IC50 strictly < 400 nM for this molecule? N=C(N)NCCC[C@H](NC(=O)[C@H](Cc1cccc(Cl)c1)NC(=O)[C@@H](Cc1ccccc1)NS(=O)(=O)Cc1ccccc1)C(=O)c1nccs1
stdout: satisfied

stdin: Field: below-cutoff. Rule: recorded IC50 strictly less than 400 nM. Subject: Cc1ccccc1C[C@H](NC(=O)[C@@H](Cc1ccccc1)NS(=O)(=O)Cc1ccccc1)C(=O)N[C@@H](CCCNC(=N)N)C(=O)c1nccs1
stdout: satisfied

stdin: In plain terms, does CC[C@@H](C)[C@H](NC(=O)[C@@H](Cc1ccccc1)NS(=O)(=O)Cc1ccccc1)C(=O)N[C@@H](CCCN=C(N)N)C(=O)c1nccs1 come in under 400 nM for IC50?
stdout: satisfied
